TESTED_SYSTEM: STAT6 (Homo sapiens, UniProt P42226)
Construct: endogenous in cells; host or cells: A549
Sequence (P42226 1-847): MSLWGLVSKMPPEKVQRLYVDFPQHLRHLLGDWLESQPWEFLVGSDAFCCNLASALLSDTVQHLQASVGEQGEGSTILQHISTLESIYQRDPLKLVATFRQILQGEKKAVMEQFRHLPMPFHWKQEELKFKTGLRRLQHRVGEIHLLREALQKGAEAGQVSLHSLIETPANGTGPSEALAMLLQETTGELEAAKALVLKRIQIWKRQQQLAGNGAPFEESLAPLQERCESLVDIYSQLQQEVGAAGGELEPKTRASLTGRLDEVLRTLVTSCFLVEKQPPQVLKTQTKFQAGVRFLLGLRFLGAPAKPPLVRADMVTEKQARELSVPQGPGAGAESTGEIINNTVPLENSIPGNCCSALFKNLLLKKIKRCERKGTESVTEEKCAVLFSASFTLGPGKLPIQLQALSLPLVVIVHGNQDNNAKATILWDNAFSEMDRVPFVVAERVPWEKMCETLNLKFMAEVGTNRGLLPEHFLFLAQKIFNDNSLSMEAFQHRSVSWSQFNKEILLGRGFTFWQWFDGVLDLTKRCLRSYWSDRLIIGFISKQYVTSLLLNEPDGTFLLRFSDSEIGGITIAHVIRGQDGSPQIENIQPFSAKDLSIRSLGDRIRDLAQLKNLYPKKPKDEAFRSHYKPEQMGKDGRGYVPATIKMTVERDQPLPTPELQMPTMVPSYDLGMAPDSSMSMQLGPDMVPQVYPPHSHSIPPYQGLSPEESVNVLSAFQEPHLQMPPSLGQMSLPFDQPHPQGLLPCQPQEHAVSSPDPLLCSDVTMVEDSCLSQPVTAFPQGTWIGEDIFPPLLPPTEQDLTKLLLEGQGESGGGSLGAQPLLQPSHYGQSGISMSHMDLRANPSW
ASSAY_COMMENT: STAT6 MSD degradation in A549 cells
Assay type: cell-based
CONDITION_CONTEXT: 24 h
Field: Dmax. Provide a value for each of the compounds that follow.

As a guide, the following entries are already answered.
COc1cc(N2CCN(c3ccc(-c4cc(C5=CCCN(C(=O)CCn6cccn6)C5)c(F)c5[nH]c(C(=O)N(C)C)cc45)cc3)CC2)c(F)cc1N[C@H]1CCC(=O)NC1=O (single isomer, unassigned) = > 90%
CN(C)C(=O)c1cc2c(-c3ccc(C4CCN(c5ccc(C6CCC(=O)NC6=O)cc5F)CC4)cc3)cc(C3=CCCN(C(=O)CCn4cccn4)C3)c(F)c2[nH]1 (stereo not drawn) = > 90%

Continue with the next compound.
Quick one: give measured Dmax for Cc1cc(C2CCN(c3cccc4c3n(C)c(=O)n4[C@@H]3CCC(=O)NC3=O)CC2)ccc1-c1cc(C2=CCCN(C(=O)C(C)C)C2)c(F)c2[nH]c(C(=O)N(C)C)cc12 (single isomer, unassigned)
> 90%

* * *

TESTED_SYSTEM: STAT6 (Homo sapiens, UniProt P42226)
Construct: endogenous in cells; host or cells: A549
ASSAY_COMMENT: STAT6 MSD degradation in A549 cells
Type: cell-based
CONDITION_CONTEXT: 24 h
Field: DC50. Provide a value for each of the compounds that follow.

As a guide, the following entries are already answered.
CC(=O)N1CCC=C(c2cc(-c3ccc(C4CCN(c5cccc6c5n(C)c(=O)n6C5CCC(=O)NC5=O)CC4)cc3C)c3cc(C(=O)N(C)C)[nH]c3c2F)C1 (centres unmarked) = < 1 nM
COc1cc(N2CCN(c3ccc(-c4cc(C5=CCCN(C(=O)CCn6cccn6)C5)c(F)c5[nH]c(C(=O)N(C)C)cc45)c(F)c3F)CC2)c(F)cc1NC1CCC(=O)NC1=O (centres unmarked) = < 1 nM

For every record below, what is its DC50?
1. CN(C)C(=O)c1cc2c(-c3ccc(C4CCN(c5ccc(N[C@H]6CCC(=O)NC6=O)cc5F)CC4)cc3)cc(C3=CCCN(C(=O)CCn4cccn4)C3)c(F)c2[nH]1 (single isomer, unassigned)
2. CN(C)C(=O)c1cc2c(-c3ccc(C4CCN(c5ccc([C@@H]6CCC(=O)NC6=O)cc5F)CC4)cc3)cc(C3=CCCN(C(=O)CCn4cccn4)C3)c(F)c2[nH]1 (single isomer, unassigned)
3. Cc1cc(C2CCN(c3cccc4c3n(C)c(=O)n4[C@@H]3CCC(=O)NC3=O)CC2)ccc1-c1cc(C2=CCCN(C(=O)C(C)C)C2)c(F)c2[nH]c(C(=O)N(C)C)cc12 (single isomer, unassigned)
4. COc1cc(N2CCN(CCCCCCCCN(C(=O)[C@H]3CCCN(c4cncc5ccccc45)C3)c3ccc(=O)n(CC(=O)O)c3)CC2)ccc1-c1cc(C2=CCCN(C(=O)CCn3ccnn3)C2)c(F)c2[nH]c(C(=O)N(C)C)cc12
5. COc1cc(N2CCN(c3ccc(-c4cc(C5=CCCN(C(=O)CCn6cccn6)C5)c(F)c5[nH]c(C(=O)N(C)C)cc45)cc3)CC2)c(F)cc1N[C@@H]1CCC(=O)NC1=O (single isomer, unassigned)
6. CN(C)C(=O)c1cc2c(-c3ccc(C4CCN(c5ccc(C6CCC(=O)NC6=O)cc5F)CC4)cc3)cc(C3=CCCN(C(=O)CCn4ccnn4)C3)c(F)c2[nH]1 (centres unmarked)
7. COc1cc(N2CCC(c3ccc(-c4cc(C5=CCCN(C(=O)CCn6cccn6)C5)c(F)c5[nH]c(C(=O)N(C)C)cc45)c(OC(F)(F)F)c3)CC2)c(F)cc1N[C@H]1CCC(=O)NC1=O (single isomer, unassigned)

["< 1 nM", "< 1 nM", "1 to 10 nM", "10 to 100 nM", "< 1 nM", "< 1 nM", "1 to 10 nM"]

For every record below, what is its DC50?
1. CN(C)C(=O)c1cc2c(-c3ccc(C4CCN(c5ccc(C6CCC(=O)NC6=O)cc5F)CC4)cc3)cc(C3=CCCN(C(=O)CCn4cccn4)C3)c(F)c2[nH]1 (centres unmarked)
2. CN(C)C(=O)c1cc2c(F)c(C3=CCCN(C(=O)CCn4cccn4)C3)cc(-c3ccc(C4CN(C(=O)c5ccc(Cl)c(C6CCC(=O)NC6=O)c5)C4)cc3)c2o1 (centres unmarked)
3. CN(C)C(=O)c1cc2c(-c3ccc(C4CCN(c5ccc(N[C@@H]6CCC(=O)NC6=O)cc5F)CC4)cc3)cc(C3=CCCN(C(=O)CCn4cccn4)C3)c(F)c2[nH]1 (single isomer, unassigned)
4. CN(C)C(=O)c1cc2c(F)c(C3CCCN(C(=O)CCn4cccn4)C3)cc(-c3ccc(N4CCN(CCc5ccc(C6CCC(=O)NC6=O)c(Cl)c5)CC4)cc3)c2o1 (single isomer, unassigned)
5. COc1cc(N2CCN(c3ccc(-c4cc(C5=CCCN(C(=O)CCn6cccn6)C5)c(F)c5[nH]c(C(=O)N(C)C)cc45)c(F)c3F)CC2)c(F)cc1N[C@H]1CCC(=O)NC1=O (single isomer, unassigned)
6. COc1cc(N2CCN(c3ccc(-c4cc(C5=CCCN(C(=O)CCn6cccn6)C5)c(F)c5[nH]c(C(=O)N(C)C)cc45)c(F)c3F)CC2)c(F)cc1N[C@@H]1CCC(=O)NC1=O (single isomer, unassigned)
7. COc1cc(N2CCN(c3ccc(-c4cc(C5=CCCN(C(=O)CCn6cccn6)C5)c(F)c5[nH]c(C(=O)N(C)C)cc45)cc3)CC2)c(F)cc1N[C@H]1CCC(=O)NC1=O (single isomer, unassigned)

["< 1 nM", "10 to 100 nM", "1 to 10 nM", "10 to 100 nM", "< 1 nM", "< 1 nM", "< 1 nM"]

For every record below, what is its DC50?
1. Cc1cc(C2CCN(c3cccc4c3n(C)c(=O)n4C3CCC(=O)NC3=O)CC2)ccc1-c1cc(C2=CCCN(C(=O)C(C)C)C2)c(F)c2[nH]c(C(=O)N(C)C)cc12 (centres unmarked)
2. Cc1cc(C2CCN(c3cccc4c3n(C)c(=O)n4[C@H]3CCC(=O)NC3=O)CC2)ccc1-c1cc(C2=CCCN(C(=O)C(C)C)C2)c(F)c2[nH]c(C(=O)N(C)C)cc12 (single isomer, unassigned)
3. COc1cc(N2CCC(c3ccc(-c4cc(C5=CCCN(C(=O)CCn6cccn6)C5)c(F)c5[nH]c(C(=O)N(C)C)cc45)c(OC(F)(F)F)c3)CC2)c(F)cc1N[C@@H]1CCC(=O)NC1=O (single isomer, unassigned)
4. CN(C)C(=O)c1cc2c(-c3ccc(C4CCN(c5ccc([C@H]6CCC(=O)NC6=O)cc5F)CC4)cc3)cc(C3=CCCN(C(=O)CCn4cccn4)C3)c(F)c2[nH]1 (single isomer, unassigned)

["< 1 nM", "< 1 nM", "1 to 10 nM", "< 1 nM"]
